Target or test system: isolated recombinant JAK1 kinase domain (Homo sapiens (Human), UniProt P23458)
Sequence (P23458 875-1153): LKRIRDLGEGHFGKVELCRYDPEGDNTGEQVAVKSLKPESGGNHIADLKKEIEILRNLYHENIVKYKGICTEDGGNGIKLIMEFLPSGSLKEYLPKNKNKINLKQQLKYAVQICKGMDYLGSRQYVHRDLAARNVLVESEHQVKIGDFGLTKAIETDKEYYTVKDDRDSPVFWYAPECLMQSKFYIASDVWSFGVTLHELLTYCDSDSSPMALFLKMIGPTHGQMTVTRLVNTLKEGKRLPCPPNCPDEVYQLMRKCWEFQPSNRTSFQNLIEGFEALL
Experiment notes: JAK1 enzyme assay (Caliper LabChip, peptide phosphorylation)
Format: biochemical
Condition description: isolated recombinant JAK1 kinase domain, 25 μM ATP
Rule: measured Ki below 0.6 nM gets Met; anything equal to or greater than 0.6 nM gets Not met.

Prompt: State whether 0.6 nM exceeds Ki recorded for NC(=O)CCN1CCC(n2cc(NC(=O)c3c(N)nn4cccnc34)c(-c3cc(Cl)ccc3OC(F)F)n2)CC1 [Example 165] .
Completion: Met

Prompt: State whether 0.6 nM exceeds Ki recorded for CCOC(=O)C1CCN(CCN2CCN(C(=O)Cn3cc(NC(=O)c4cnn5cccnc45)c(-c4cc(Cl)ccc4OC(F)F)n3)CC2)CC1 [Example 334] .
Completion: Not met

Prompt: State whether 0.6 nM exceeds Ki recorded for CN(C)C(=O)CCCN1CCC(n2cc(NC(=O)c3c(N)nn4cccnc34)c(-c3cc(Cl)ccc3OC(F)F)n2)CC1 [Example 148] .
Completion: Not met

Prompt: State whether 0.6 nM exceeds Ki recorded for CCOC(=O)CCN(C)C1CCN(C(=O)Cn2cc(NC(=O)c3cnn4cccnc34)c(-c3cc(Cl)ccc3OC(F)F)n2)CC1 [Example 391] .
Completion: Not met

Prompt: State whether 0.6 nM exceeds Ki recorded for CN(C)C(=O)CCCN(C)C1CCN(C(=O)Cn2cc(NC(=O)c3cnn4cccnc34)c(-c3cc(Cl)ccc3OC(F)F)n2)CC1 [Example 88] .
Completion: Not met

Prompt: State whether 0.6 nM exceeds Ki recorded for CN(CCc1ccc(O)cc1)C1CCN(C(=O)Cn2cc(NC(=O)c3cnn4cccnc34)c(-c3cc(Cl)ccc3OC(F)F)n2)CC1 [Example 90] .
Completion: Not met

Prompt: State whether 0.6 nM exceeds Ki recorded for CC(=O)NCCCN1CCC(n2cc(NC(=O)c3c(N)nn4cccnc34)c(-c3cc(Cl)ccc3OC(F)F)n2)CC1 [Example 150] .
Completion: Not met

Prompt: State whether 0.6 nM exceeds Ki recorded for CN(Cc1ccc(Cl)cc1)C1CCN(C(=O)Cn2cc(NC(=O)c3cnn4cccnc34)c(-c3cc(Cl)ccc3OC(F)F)n2)CC1 [Example 126] .
Completion: Not met

Prompt: State whether 0.6 nM exceeds Ki recorded for O=C(Nc1cn(CC(=O)N2CCN3CCCCC3C2)nc1-c1cc(Cl)ccc1OC(F)F)c1cnn2cccnc12 (centres unmarked) [Example 241] .
Completion: Not met

Prompt: State whether 0.6 nM exceeds Ki recorded for CCN(Cc1cccnc1)C(=O)Cn1cc(NC(=O)c2cnn3cccnc23)c(-c2cc(Cl)ccc2OC(F)F)n1 [Example 301] .
Completion: Met

Prompt: State whether 0.6 nM exceeds Ki recorded for CC(c1ccccc1)N1CCN(C(=O)Cn2cc(NC(=O)c3cnn4cccnc34)c(-c3cc(Cl)ccc3OC(F)F)n2)CC1 (centres unmarked) [Example 316] .
Completion: Met

Prompt: State whether 0.6 nM exceeds Ki recorded for O=C(Nc1cn(C2CCN(CCCN3CCCC3=O)CC2)nc1-c1cc(Cl)ccc1OC(F)F)c1cnn2cccnc12 [Example 155] .
Completion: Not met

Prompt: State whether 0.6 nM exceeds Ki recorded for CC1CN(C)CCN1C(=O)Cn1cc(NC(=O)c2cnn3cccnc23)c(-c2cc(Cl)ccc2OC(F)F)n1 (centres unmarked) [Example 375] .
Completion: Not met

Source of measurements: patent US9346815B2
